- System: AsPC-1 (K-Ras G12D)
- Run Description: CellTiter-Glo cell viability assay, AsPC-1
- Format: cell-based
- Assay Conditions: Homo sapiens, ASPC1, 120 h, read-out: AsPC-1 Cell Viability IC50, AsPC-1, K-Ras G12D, 5-day treatment
pIC50: −log10 of the molar value.

>  <Compound>
CCn1c(-c2cccnc2[C@H](C)OC)c2c3cc(ccc31)-c1cc(O)cc(c1)C[C@H](NC(=O)[C@H](C(C)C)N(C)C(=O)CN(C)C(=O)[C@@H]1N[C@@H]1C(F)(F)F)C(=O)N1CCC[C@H](N1)C(=O)OCC(C)(C)C2

>  <pIC50>
6.00 to 7.00

$$$$
>  <Compound>
CCn1c(-c2cccnc2[C@H](C)OC)c2c3cc(ccc31)-c1cc(O)cc(c1)C[C@H](NC(=O)[C@H](C(C)C)N(C)C(=O)CN(C)C(=O)[C@H]1CN1CC(=O)N(C)C)C(=O)N1CCC[C@H](N1)C(=O)OCC(C)(C)C2 (stereo partly shown)

>  <pIC50>
6.00 to 7.00

$$$$
>  <Compound>
CCn1c(-c2cccnc2[C@H](C)OC)c2c3cc(ccc31)-c1cc(O)cc(c1)C[C@H](NC(=O)[C@H](C(C)C)N(C)C(=O)CN(C)C(=O)[C@@H]1CN1CC(=O)N(C)C)C(=O)N1CCC[C@H](N1)C(=O)OCC(C)(C)C2 (stereo partly shown)

>  <pIC50>
< 5.00

$$$$
>  <Compound>
CCn1c(-c2cccnc2[C@H](C)OC)c2c3cc(ccc31)-c1cc(O)cc(c1)C[C@H](NC(=O)[C@H](C(C)C)N(C)C(=O)CN(C)C(=O)[C@@H]1N[C@H]1C(F)(F)F)C(=O)N1CCC[C@H](N1)C(=O)OCC(C)(C)C2

>  <pIC50>
6.00 to 7.00

$$$$

---

- Study Target: KRAS WT (Homo sapiens, UniProt P01116+P62937)
- Sequence (P01116 1-169 isoform P01116-2 limits assumed, one chain of several): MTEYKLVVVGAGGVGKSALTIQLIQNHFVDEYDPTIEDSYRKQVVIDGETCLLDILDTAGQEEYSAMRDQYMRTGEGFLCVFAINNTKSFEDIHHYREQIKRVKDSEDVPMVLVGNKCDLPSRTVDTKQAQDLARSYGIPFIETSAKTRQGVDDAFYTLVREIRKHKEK
- Run Description: Ras-Raf disruption/FRET/MOA assay, KRAS WT
- Format: biochemical
// values below are reported IC50
Quantity Name: IC50

>  <Compound>
CCn1c(-c2cnccc2COC)c2c3cc(ccc31)-c1cc(O)cc(c1)C[C@H](NC(=O)[C@H](C(C)C)N(C)C(=O)CN(C)C(=O)C1CN1)C(=O)N1CCC[C@H](N1)C(=O)OCC(C)(C)C2 (stereo partly shown) [Compound 33]

>  <Study Target>
KRAS WT (Homo sapiens, UniProt P01116+P62937)

>  <Quantity Name>
IC50

>  <Recorded Measurement>
100 to 1000 nM

$$$$
>  <Compound>
CCn1c(-c2cnccc2COC)c2c3cc(ccc31)-c1cc(O)cc(c1)C[C@H](NC(=O)[C@H](C(C)C)N(C)C(=O)CN(C)C(=O)[C@H]1CN1Cc1ccccc1)C(=O)N1CCC[C@H](N1)C(=O)OCC(C)(C)C2 (stereo partly shown) [Compound 9]

>  <Study Target>
KRAS WT (Homo sapiens, UniProt P01116+P62937)

>  <Quantity Name>
IC50

>  <Recorded Measurement>
100 to 1000 nM

$$$$
>  <Compound>
CCn1c(-c2cnccc2COC)c2c3cc(ccc31)-c1cc(O)cc(c1)C[C@H](NC(=O)[C@H](C(C)C)N(C)C(=O)CN(C)C(=O)[C@H]1N[C@H]1c1ccccc1)C(=O)N1CCC[C@H](N1)C(=O)OCC(C)(C)C2 [Compound 116]

>  <Study Target>
KRAS WT (Homo sapiens, UniProt P01116+P62937)

>  <Quantity Name>
IC50

>  <Recorded Measurement>
10 to 100 nM

$$$$
>  <Compound>
CCn1c(-c2cccnc2[C@H](C)OC)c2c3cc(ccc31)-c1cc(O)cc(c1)C[C@H](NC(=O)[C@H](C(C)C)N(C)C(=O)CN(C)C(=O)[C@@H]1CN1)C(=O)N1CCC[C@H](N1)C(=O)OCC(C)(C)C2 [Compound 150]

>  <Study Target>
KRAS WT (Homo sapiens, UniProt P01116+P62937)

>  <Quantity Name>
IC50

>  <Recorded Measurement>
10 to 100 nM

$$$$

---

- Study Target: KRAS G12C (Homo sapiens, UniProt P01116+P62937, G12C)
- Sequence (P01116 1-169 isoform P01116-2 G12C limits assumed): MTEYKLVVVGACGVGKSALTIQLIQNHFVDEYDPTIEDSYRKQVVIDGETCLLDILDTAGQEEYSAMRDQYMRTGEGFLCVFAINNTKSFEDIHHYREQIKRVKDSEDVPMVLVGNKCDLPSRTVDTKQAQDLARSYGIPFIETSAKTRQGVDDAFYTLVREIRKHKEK
- Sequence (P62937 whole entry): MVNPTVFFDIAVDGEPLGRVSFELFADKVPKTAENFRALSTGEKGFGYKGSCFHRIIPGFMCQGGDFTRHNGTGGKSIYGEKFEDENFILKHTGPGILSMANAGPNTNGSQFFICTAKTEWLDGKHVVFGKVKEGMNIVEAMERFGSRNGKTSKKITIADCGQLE
- Run Description: Ras-Raf disruption/FRET/MOA assay, KRAS G12C
- Assay type: biochemical
- Assay Conditions: disruption of BRAF RBD binding, with Cyclophilin A; read-out: KRAS G12C FRET IC50
pIC50: −log10 of the molar value.
Quantity Name: pIC50

>  <Compound>
CCn1c(-c2cnccc2COC)c2c3cc(ccc31)-c1cc(O)cc(c1)C[C@H](NC(=O)[C@H](C(C)C)N(C)C(=O)CN(C)C(=O)[C@@H]1[C@H](C3CC3)N1[S@@+]([O-])C(C)(C)C)C(=O)N1CCC[C@H](N1)C(=O)OCC(C)(C)C2 (some centres unmarked)

>  <Study Target>
KRAS G12C (Homo sapiens, UniProt P01116+P62937, G12C)

>  <Recorded Measurement>
7.00 to 8.00

$$$$
>  <Compound>
CCn1c(-c2cnccc2COC)c2c3cc(ccc31)-c1cc(O)cc(c1)C[C@H](NC(=O)[C@@H](CNC1=NCCO1)C(C)C)C(=O)N1CCC[C@H](N1)C(=O)OCC(C)(C)C2

>  <Study Target>
KRAS G12C (Homo sapiens, UniProt P01116+P62937, G12C)

>  <Recorded Measurement>
5.00 to 6.00

$$$$

---

- Study Target: KRAS G12C (Homo sapiens, UniProt P01116+P62937, G12C)
- Run Description: Ras-Raf disruption/FRET/MOA assay, KRAS G12C
- Type: biochemical
- Assay Conditions: disruption of BRAF RBD binding, with Cyclophilin A; read-out: KRAS G12C FRET IC50
pIC50: −log10 of the molar value.

>  <Compound>
CCn1c(-c2cccnc2[C@H](C)OC)c2c3cc(ccc31)-c1cc(O)cc(c1)C[C@H](NC(=O)[C@H](C(C)C)N1CC[C@@]3(CCN(C[C@H]4CN4)C3)C1=O)C(=O)N1CCC[C@H](N1)C(=O)OCC(C)(C)C2 (single isomer, unassigned) [Example 139]

>  <Study Target>
KRAS G12C (Homo sapiens, UniProt P01116+P62937, G12C)

>  <pIC50>
> 8.00

$$$$
>  <Compound>
CCn1c(-c2cnccc2COC)c2c3cc(ccc31)-c1cc(O)cc(c1)C[C@H](NC(=O)[C@H](C(C)C)N(C)C(=O)CN(C)C(=O)[C@H]1[C@@H](C)N1[S@+]([O-])C(C)(C)C)C(=O)N1CCC[C@H](N1)C(=O)OCC(C)(C)C2 (some centres unmarked) [Compound 53]

>  <Study Target>
KRAS G12C (Homo sapiens, UniProt P01116+P62937, G12C)

>  <pIC50>
7.00 to 8.00

$$$$

---

// values below are reported pIC50
- System: AsPC-1 (K-Ras G12D)
- Run Description: CellTiter-Glo cell viability assay, AsPC-1
- Assay type: cell-based
- Assay Conditions: Homo sapiens, ASPC1, 120 h, read-out: AsPC-1 Cell Viability IC50, AsPC-1, K-Ras G12D, 5-day treatment
pIC50: −log10 of the molar value.

>  <Compound>
CCn1c(-c2cnccc2COC)c2c3cc(ccc31)-c1cc(O)cc(c1)C[C@H](NC(=O)[C@H](C(C)C)N(C)C(=O)CN(C)C(=O)[C@H]1N[C@@H]1c1ccccc1)C(=O)N1CCC[C@H](N1)C(=O)OCC(C)(C)C2

>  <pIC50>
6.00 to 7.00

$$$$
>  <Compound>
CCn1c(-c2cccnc2[C@H](C)OC)c2c3cc(ccc31)-c1cc(O)cc(c1)C[C@H](NC(=O)[C@H](C(C)C)N(C)C(=O)CN(C)C(=O)[C@@H]1CN1CCCOC(C)=O)C(=O)N1CCC[C@H](N1)C(=O)OCC(C)(C)C2 (stereo partly drawn)

>  <pIC50>
6.00 to 7.00

$$$$
>  <Compound>
CCn1c(-c2cccnc2[C@H](C)OC)c2c3cc(ccc31)-c1cc(O)cc(c1)C[C@H](NC(=O)[C@H](C(C)C)N(C)C(=O)CN(C)C(=O)[C@@H]1CN1CC1(C)COC1)C(=O)N1CCC[C@H](N1)C(=O)OCC(C)(C)C2 (stereo partly drawn)

>  <pIC50>
5.00 to 6.00

$$$$
>  <Compound>
CCn1c(-c2cccnc2[C@H](C)OC)c2c3cc(ccc31)-c1cc(O)cc(c1)C[C@H](NC(=O)[C@H](C(C)C)N(C)C(=O)CN(C)C(=O)[C@@H]1CN1CCOC)C(=O)N1CCC[C@H](N1)C(=O)OCC(C)(C)C2 (stereo partly drawn)

>  <pIC50>
6.00 to 7.00

$$$$
>  <Compound>
CCn1c(-c2cccnc2[C@H](C)OC)c2c3cc(ccc31)-c1cc(O)cc(c1)C[C@H](NC(=O)[C@H](C(C)C)N(C)C(=O)[C@H]1CC[C@@H](C)N1C(=O)[C@H]1CN1)C(=O)N1CCC[C@H](N1)C(=O)OCC(C)(C)C2

>  <pIC50>
5.00 to 6.00

$$$$
>  <Compound>
CCn1c(-c2cccnc2[C@H](C)OC)c2c3cc(ccc31)-c1cc(O)cc(c1)C[C@H](NC(=O)[C@H](C(C)C)N(C)C(=O)CNC(=O)[C@@H]1N[C@@H]1C1CC1)C(=O)N1CCC[C@H](N1)C(=O)OCC(C)(C)C2

>  <pIC50>
6.00 to 7.00

$$$$
>  <Compound>
CCn1c(-c2cccnc2[C@H](C)OC)c2c3cc(ccc31)-c1cc(O)cc(c1)C[C@H](NC(=O)[C@H](C(C)C)N(C)C(=O)CN(C)C(=O)C1CN1CCOC)C(=O)N1CCC[C@H](N1)C(=O)OCC(C)(C)C2 (stereo partly drawn)

>  <pIC50>
6.00 to 7.00

$$$$
>  <Compound>
CCn1c(-c2cccnc2[C@H](C)OC)c2c3cc(ccc31)-c1cc(O)cc(c1)C[C@H](NC(=O)[C@H](C(C)C)N(C)C(=O)CN(C)C(=O)[C@]1(C)CN1)C(=O)N1CCC[C@H](N1)C(=O)OCC(C)(C)C2

>  <pIC50>
6.00 to 7.00

$$$$
>  <Compound>
CCn1c(-c2cccnc2[C@H](C)OC)c2c3cc(ccc31)-c1cc(O)cc(c1)C[C@H](NC(=O)[C@H](C(C)C)N(C)C(=O)CN(C)C(=O)[C@@H]1CN1CCO)C(=O)N1CCC[C@H](N1)C(=O)OCC(C)(C)C2 (stereo partly drawn)

>  <pIC50>
5.00 to 6.00

$$$$
